Measured values drawn from patent US10065943B2 for this set.

Biological target: human AT2 receptor (Homo sapiens)
Construct: membranes prepared in house
Assay: AT2 receptor binding ([125I]CGP 42112A displacement, CHO-K1 membranes)
Details: [125I]CGP 42112A 0.05 nM, membranes of CHO-K1 cells expressing human AT2 receptor; Ki from IC50 by Cheng-Prussoff equation; read-out: Ki
Excerpt: Reagents were purchased from Sigma-Aldrich, unless otherwise specified. Dialyzed fetal bovine serum (FBS) was from Life Technologies (cat. no. 10073772). Valiscreen® human angiotensin AT2 receptor cell line (cat. no. ES-070-C), [^125I]CGP 42112A (cat. no. NEX324025UC) and MicroScint™ 40 (cat. no. 6013641) were purchased from PerkinElmer. CGP 42112A (cat. no. 2569) and PD 123,319 ditrifluoroacetate (cat. no. 1361) were from Tocris Biosciences. • 1. […]
Could you please report measured pKi for the items listed next?
The value called pKi is obtained by taking minus log10 of the concentration in mol/L.

Consider the molecule C[C@@]1(C(=O)O)C[C@H](N2CCCOc3cc(F)c(F)cc32)CN1C(=O)C(c1ccccc1)c1ccccc1 [Compound 32] and give its measured pKi.
8.43

Which value of pKi has been reported for O=C(O)[C@@H]1C[C@H](N2CCCCc3sccc32)CN1C(=O)C(c1ccccc1)c1ccccc1 [Compound 11] in the records?
8.31

Which pKi value belongs to O=C(NS(=O)(=O)C1CC1)[C@@H]1C[C@H](N2CCCCc3ccccc32)CN1C(=O)C(c1ccccc1)c1ccccc1 [Compound 43] ?
8.07

Quick one: pKi for CN(C)S(=O)(=O)NC(=O)[C@@H]1C[C@H](N2CCCCc3ccccc32)CN1C(=O)C(c1ccccc1)c1ccccc1 [Compound 44] ?
7.77

###

Target: human AT2 receptor (Homo sapiens)
Construct: membranes prepared in house
Sequence (P50052 1-363): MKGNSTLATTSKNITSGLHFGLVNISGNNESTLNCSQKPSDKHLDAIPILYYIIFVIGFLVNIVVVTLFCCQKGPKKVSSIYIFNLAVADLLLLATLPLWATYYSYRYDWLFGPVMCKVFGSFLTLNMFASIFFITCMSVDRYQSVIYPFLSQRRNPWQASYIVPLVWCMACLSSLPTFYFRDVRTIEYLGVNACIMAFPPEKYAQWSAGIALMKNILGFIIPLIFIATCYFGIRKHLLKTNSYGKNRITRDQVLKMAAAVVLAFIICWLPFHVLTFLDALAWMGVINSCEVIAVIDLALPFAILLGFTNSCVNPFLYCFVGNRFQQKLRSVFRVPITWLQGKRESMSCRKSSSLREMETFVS
Experiment: AT2 receptor binding ([125I]CGP 42112A displacement, CHO-K1 membranes)
Settings: [125I]CGP 42112A 0.05 nM, membranes of CHO-K1 cells expressing human AT2 receptor; Ki from IC50 by Cheng-Prussoff equation; read-out: Ki
READOUT TYPE: Ki
Put down the number, then write its unit next to it.

Returns the measured Ki for the input molecule. Input: O=C(NS(=O)(=O)C1CC1)[C@@H]1C[C@H](N2CCCOc3cc(F)c(F)cc32)CN1C(=O)C(c1ccccc1)c1ccccc1 [Compound 36]
2.6 nM

Could you tell me which Ki is on file for O=C(O)[C@@H]1C[C@H](N2CCCOc3cc(F)c(F)cc32)CN1C(=O)C(c1ccccc1)c1ccccc1 [Compound 21] ?
2.3 nM

// query Ki value for entry Cc1ccc2c(c1)N([C@H]1C[C@@H](C(=O)O)N(C(=O)C(c3ccccc3)c3ccccc3)C1)CCCC2 [Compound 3]
34 nM

Which Ki is listed for O=C(O)[C@@H]1C[C@H](N2CCCc3ccccc3C2)CN1C(=O)C(c1ccccc1)c1ccccc1 [Compound 18] ?
79.7 nM

Recorded Ki for Cc1ccc2c(c1)N([C@@H]1C[C@@H](C(=O)O)N(C(=O)C(c3ccccc3)c3ccccc3)C1)CCCC2 [Compound 23] , please?
15.9 nM

Recorded Ki for C[C@@]1(C(=O)O)C[C@H](N2CCCOc3cc(F)ccc32)CN1C(=O)C(c1ccccc1)c1ccccc1 [Compound 33] , please?
7 nM

Look up Ki: CN1CCN([C@H]2C[C@@H](C(=O)O)N(C(=O)C(c3ccccc3)c3ccccc3)C2)Cc2ccccc21 [Compound 17]
178 nM

// query Ki value for entry O=C(O)[C@@H]1C[C@H](N2CCCCCc3ccccc32)CN1C(=O)C(c1ccccc1)c1ccccc1 [Compound 13]
8.7 nM

Value lookup for Ki; key = CN(C)S(=O)(=O)NC(=O)[C@@H]1C[C@H](N2CCCCc3cc(F)c(F)cc32)CN1C(=O)C(c1ccccc1)c1ccccc1 [Compound 40]
9.3 nM

Tell me the measured Ki of O=C(O)[C@@H]1C[C@H](N2CCCCc3cccnc32)CN1C(=O)C(c1ccccc1)c1ccccc1 [Compound 12] , please.
81 nM

Dear colleague, I am looking for the recorded Ki of the following molecule: O=C(O)[C@@H]1C[C@H](N2CCCCc3ccc(F)cc32)CN1C(=O)C(c1ccccc1)c1ccccc1 [Compound 2]
4.7 nM

Value lookup for Ki; key = O=C(C(c1ccccc1)c1ccccc1)N1C[C@@H](N2CCCCc3ccccc32)C[C@H]1c1nn[nH]n1 [Compound 35]
36.2 nM

Fill in: Ki of O=C(O)[C@@H]1C[C@@H](N2CCCCc3ccncc32)CN1C(=O)C(c1ccccc1)c1ccccc1 [Compound 28] is ___
33 nM
